system.name: nanoKAZ luciferase (Oplophorus gracilirostris, UniProt Q9GV45, A31E/A60N/A81I/F95D/I117V/K70R/L54V/L99Q/M102K/N193R/P142E/Q151K/Q38R/Q45L/V71I/Y165I)
Construct: luciferase catalytic domain (nanoKAZ, 19 kDa) from the Oplophorus-derived luciferase; host or cells: cell-free: 1-Step Human Coupled IVT Kit, pT7CFE1-based vector
Sequence (Q9GV45 other isoform, or with tags, fused parts or gaps with the stated changes): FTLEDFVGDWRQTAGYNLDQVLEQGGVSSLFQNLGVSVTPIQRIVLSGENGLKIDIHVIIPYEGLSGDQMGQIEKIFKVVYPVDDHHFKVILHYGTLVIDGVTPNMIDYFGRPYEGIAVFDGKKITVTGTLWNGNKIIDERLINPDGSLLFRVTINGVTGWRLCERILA
procedure.text: In vitro bioluminescence screening of imidazo[1,2-a]pyrazin-3(7H)-ones with nanoKAZ expressed in vitro (96-well luminometer, 2 h kinetic)
Assay type: biochemical
assay.context: Table 1; furimazine = 1
quantity.name: V1: maximum intensity, normalized using furimazine (Q-1) as a reference
In your answer, state the number alone without any accompanying words.

Solved cases (2 shown):
- molecule: "CCc1ccc(Cc2nc3c(Cc4cccc(F)c4)[nH]c(-c4ccccc4)cn-3c2=O)o1"
  test.result: 1.99
- molecule: "Cc1ccc(Cc2nc3c(Cc4cccc(F)c4)[nH]c(-c4ccccc4)cn-3c2=O)o1"
  test.result: 2.04

### Prompt # lookup: V1: maximum intensity, normalized using furimazine (Q-1) as a reference of O=c1c(Cc2ccccc2)nc2c(Cc3ccccc3)[nH]c(-c3ccc(O)cc3)cn1-2 [Q-75, reference compound]
### Response 2.03

----------
molecules and their reported V3: area under the curve for ten minutes, normalized using furimazine (Q-1) as a reference
system.name: nanoKAZ luciferase (Oplophorus gracilirostris, UniProt Q9GV45, A31E/A60N/A81I/F95D/I117V/K70R/L54V/L99Q/M102K/N193R/P142E/Q151K/Q38R/Q45L/V71I/Y165I)
Construct: luciferase catalytic domain (nanoKAZ, 19 kDa) from the Oplophorus-derived luciferase; host or cells: cell-free: 1-Step Human Coupled IVT Kit, pT7CFE1-based vector
procedure.text: In vitro bioluminescence screening of imidazo[1,2-a]pyrazin-3(7H)-ones with nanoKAZ expressed in vitro (96-well luminometer, 2 h kinetic)
Assay type: biochemical
assay.context: Table 1; furimazine = 1
Just the number.

- molecule: "Cc1cccc(Cc2nc3c(Cc4cccc(F)c4)[nH]c(-c4ccccc4)cn-3c2=O)c1"
  test.result: 1.33
- molecule: "CCc1ccc(Cc2nc3c(Cc4ccccc4)[nH]c(-c4ccccc4)cn-3c2=O)s1"
  test.result: 1.61
- molecule: "Cc1ccc(Cc2nc3c(Cc4ccccc4F)[nH]c(-c4ccccc4)cn-3c2=O)o1"
  test.result: 2.4
- molecule: "O=c1c(Cc2ccco2)nc2c(Cc3cccc(F)c3)[nH]c(-c3ccccc3)cn1-2"
  test.result: 0.92
- molecule: "O=c1c(Cc2ccccc2)nc2c(Cc3ccccc3)[nH]c(-c3ccc(O)cc3)cn1-2 [Q-75, reference compound]"
  test.result: 0.45

### Prompt Requested read-out: V3: area under the curve for ten minutes, normalized using furimazine (Q-1) as a reference. Entry: CCc1ccc(Cc2nc3c(Cc4ccccc4)[nH]c(-c4ccccc4F)cn-3c2=O)o1
### Response 2.33

### Prompt # query: V3: area under the curve for ten minutes, normalized using furimazine (Q-1) as a reference of entry O=c1c(Cc2ccco2)nc2c(Cc3ccccc3)[nH]c(-c3ccccc3)cn1-2 [Q-1, reference compound]
### Response 1
